assay: Melting temperature (Tm) of sequences; format: physicochemical
recorded metric: melting temperature (Tm) (°C)
Answers are plain numbers, in °C.

These solved cases illustrate the format of a correct answer.
- GGGTGGGGGTGGGGGTGG [SEQ ID NO:69]: 76.3
- GGGTGGGGGTGG [SEQ ID NO:68]: 56.8
- GGGTGGGGGTGGGGGTGGGGGTGG (unmodified DNA) [SEQ ID NO:70]: 86.3

Consider now this further sequence.
Looking up GGGTGG [SEQ ID NO:25] , I found its melting temperature (Tm) recorded as 2.5

====

system: chimpanzee PBMCs; assay: Cytokine production by chimpanzee PBMC (ELISA); format: cell-based; conditions: PBMC of 4 healthy chimpanzees, 100 μg/ml, 48 h
Please go through the items and note down their IL-12 fold increase: mean +/− SD.

These solved cases illustrate the format of a correct answer.
- GTGTGT [SEQ ID NO:10]: 14.0 +/− 8.5 fold increase
- GGTTGG [SEQ ID NO:41]: 15.3 +/− 10.0 fold increase
- CTGTCT [SEQ ID NO:36]: 13.4 +/− 8.9 fold increase
- TCGTTC [SEQ ID NO:37]: 14.1 +/− 10.0 fold increase
- ATGTAT (unmodified DNA) [SEQ ID NO:30]: 10.7 +/− 7.0 fold increase

Batch request: IL-12 fold increase: mean +/− SD for each of the following sequences.
1. GGGCGG (unmodified DNA) [SEQ ID NO:46]
2. TGTGTG [SEQ ID NO:9]
3. AAGTAA [SEQ ID NO:27]
4. GGGGGG [SEQ ID NO:44]
5. GGGAGG (unmodified DNA) [SEQ ID NO:45]
6. GGGTGG [SEQ ID NO:25]

15.8 +/− 10.4 fold increase
13.5 +/− 8.9 fold increase
13.2 +/− 8.2 fold increase
15.1 +/− 10.0 fold increase
15.9 +/− 10.7 fold increase
13.5 +/− 8.4 fold increase

Batch request: IL-12 fold increase: mean +/− SD for each of the following sequences.
1. TGGTTG [SEQ ID NO:29]
2. TTGTTT [SEQ ID NO:26]
3. GGAAGG (unmodified DNA) [SEQ ID NO:42]
4. GGTGGG [SEQ ID NO:24]
5. CCGTCC [SEQ ID NO:28]
6. TTTGTT [SEQ ID NO:23]
7. GGCCGG [SEQ ID NO:43]

["13.6 +/− 8.8 fold increase", "12.3 +/− 8.5 fold increase", "15.6 +/− 10.6 fold increase", "14.3 +/− 9.1 fold increase", "13.3 +/− 8.4 fold increase", "12.9 +/− 8.2 fold increase", "15.1 +/− 10.2 fold increase"]
